Target: dopamine autoreceptor (Rattus norvegicus)
Construct: homogenized rat striatal brain tissue; from tissue; host or cells: rat striatal brain tissue, homogenized
Sequence (P61169 whole entry): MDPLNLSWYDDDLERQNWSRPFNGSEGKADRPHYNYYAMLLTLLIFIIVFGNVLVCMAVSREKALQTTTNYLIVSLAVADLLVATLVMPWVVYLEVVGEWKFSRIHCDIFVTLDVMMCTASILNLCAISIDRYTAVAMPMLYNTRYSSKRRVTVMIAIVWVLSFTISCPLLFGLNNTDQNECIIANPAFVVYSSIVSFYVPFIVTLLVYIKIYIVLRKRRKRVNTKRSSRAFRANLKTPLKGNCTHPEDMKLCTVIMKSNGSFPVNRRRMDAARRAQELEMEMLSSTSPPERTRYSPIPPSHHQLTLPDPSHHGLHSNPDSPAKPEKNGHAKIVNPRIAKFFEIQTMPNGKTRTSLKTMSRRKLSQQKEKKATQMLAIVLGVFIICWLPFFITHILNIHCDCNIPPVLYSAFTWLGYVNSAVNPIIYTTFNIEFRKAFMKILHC
Test: 3H-quinpirole (Quin.) binding, affinity for the dopamine autoreceptor, homogenized rat striatal brain tissue
quantity.kind: IC50 (nM)

COc1ccc2c(c1)OC(CNCCC(C)C)CC2 (stereo not drawn)
831

(a) CCCCNCC1CCc2ccc(OC)cc2O1 (stereo not drawn)
(b) CCCN(CCC)CC1CCc2ccc(O)cc2O1 (stereo not drawn)
Exercise: For a and b , which recorded IC50 is lower? To answer, give the label that identifies your chosen option.
Key: b

Sourced from patent US5684039A
